Each entry below carries its recorded pIC50.
- assayed-target: Helicobacter pylori-derived urease (Helicobacter pylori, UniProt P69996)
- Construct: an urease solution prepared from Helicobacter pylori; endogenous in cells
- Sequence (P69996 whole entry, looked up): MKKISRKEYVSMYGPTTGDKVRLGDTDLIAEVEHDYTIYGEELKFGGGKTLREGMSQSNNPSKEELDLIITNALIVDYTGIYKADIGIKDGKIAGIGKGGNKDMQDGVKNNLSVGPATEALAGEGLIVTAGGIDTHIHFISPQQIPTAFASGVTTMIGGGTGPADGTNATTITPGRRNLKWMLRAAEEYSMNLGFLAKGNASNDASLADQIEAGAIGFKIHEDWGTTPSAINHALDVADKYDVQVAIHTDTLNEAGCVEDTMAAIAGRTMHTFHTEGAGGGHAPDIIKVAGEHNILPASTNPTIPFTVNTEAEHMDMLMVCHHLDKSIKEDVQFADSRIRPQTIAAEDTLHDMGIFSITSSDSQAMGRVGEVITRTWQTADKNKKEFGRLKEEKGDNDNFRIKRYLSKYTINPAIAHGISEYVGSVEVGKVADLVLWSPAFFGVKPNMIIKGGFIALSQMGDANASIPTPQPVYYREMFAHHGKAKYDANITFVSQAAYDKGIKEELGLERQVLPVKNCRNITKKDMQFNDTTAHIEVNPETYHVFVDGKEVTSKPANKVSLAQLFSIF
- experiment-description: Screening of urease inhibitors (ammonia yield from urea)
- Type: biochemical
- Description: Screening of Urease Inhibitors One hundred (100) μl of 100 mM Bis-Tris buffer (pH 6.5) and 60 μl of an urease solution prepared from Helicobacter pylori were added to 20 μl of a test drug dissolved in 0.1% dimethylformamide solution. […] The mixture was kept at room temperature for 10 minutes, and then the yielded ammonia in the incubation mixture was measured using a commercial test kit (Ammonia Test Wako®; Wako Pure Chemical). […]
pIC50: −log10 of the molar value.

>  <molecule>
NP(N)(=O)NC(=O)CSc1ccccc1 [Example 61]

>  <pIC50>
8.55

$$$$
>  <molecule>
Cc1csc(C(=O)NP(N)(N)=O)c1 [Example 28]

>  <pIC50>
8.82

$$$$
>  <molecule>
NP(N)(=O)NC(=O)c1sc2ccccc2c1Cl [Example 74]

>  <pIC50>
8.29

$$$$
>  <molecule>
NP(N)(=O)NC(=O)C=Cc1ccc(Cl)cc1 [compound 31]

>  <pIC50>
7.15

$$$$
>  <molecule>
NP(N)(=O)NC(=O)c1nc2ccccc2s1 [Example 70]

>  <pIC50>
7.89

$$$$
>  <molecule>
CCc1ccc(C(=O)NP(N)(N)=O)o1 [Example 44]

>  <pIC50>
7.85

$$$$

* * *

- assayed-target: Helicobacter pylori-derived urease (Helicobacter pylori, UniProt P69996)
- Construct: an urease solution prepared from Helicobacter pylori; endogenous in cells
- experiment-description: Screening of urease inhibitors (ammonia yield from urea)
- Assay type: biochemical
- assay-setup: Bis-Tris pH 6.5, room temperature, 30 min preincubation, 10 min with urea; read-out: IC50, inhibitory effect against Helicobacter pylori-derived urease
pIC50: −log10 of the molar value.
endpoint-label: pIC50

>  <compound>
CCOc1ccc2sc(SCC(=O)NP(N)(N)=O)nc2c1 [Example 66]

>  <endpoint-label>
pIC50

>  <quantitative-result>
8.00

$$$$
>  <compound>
NP(N)(=O)NC(=O)c1ccc(F)cc1 [Reference Example 1, N-(Diaminophosphinyl)-4-fluorobenzamide, reference compound]

>  <endpoint-label>
pIC50

>  <quantitative-result>
8.30

$$$$

* * *

- assayed-target: Helicobacter pylori-derived urease (Helicobacter pylori)
- Construct: an urease solution prepared from Helicobacter pylori; endogenous in cells
- experiment-description: Screening of urease inhibitors (ammonia yield from urea)
- Format: biochemical
endpoint-label: IC50 (nM)

>  <compound>
CCc1ccsc1C(=O)NP(N)(N)=O

>  <unit-label>
nM

>  <quantitative-result>
4.1

$$$$
>  <compound>
Nc1ccc(OCC(=O)NP(N)(N)=O)cc1

>  <unit-label>
nM

>  <quantitative-result>
11

$$$$
>  <compound>
NP(N)(=O)NC(=O)CCc1nc2ccccc2o1

>  <unit-label>
nM

>  <quantitative-result>
27

$$$$
>  <compound>
Cc1oc(Cl)cc1C(=O)NP(N)(N)=O

>  <unit-label>
nM

>  <quantitative-result>
7.5

$$$$
>  <compound>
NP(N)(=O)NC(=O)c1cc(Br)c(Br)s1

>  <unit-label>
nM

>  <quantitative-result>
4.3

$$$$
>  <compound>
NP(N)(=O)NC(=O)COc1cccc(Cl)c1

>  <unit-label>
nM

>  <quantitative-result>
3

$$$$
>  <compound>
Cc1cc(C(=O)NP(N)(N)=O)sc1Cl

>  <unit-label>
nM

>  <quantitative-result>
11

$$$$
>  <compound>
NP(N)(=O)NC(=O)C=Cc1nc2cc(Cl)ccc2o1

>  <unit-label>
nM

>  <quantitative-result>
3.6

$$$$
>  <compound>
NP(N)(=O)NC(=O)COc1cccc(F)c1

>  <unit-label>
nM

>  <quantitative-result>
3.6

$$$$
>  <compound>
NP(N)(=O)NC(=O)c1c(F)cccc1F [Reference Example 9]

>  <unit-label>
nM

>  <quantitative-result>
9.7

$$$$
>  <compound>
NP(N)(=O)NC(=O)c1cc(F)cc(F)c1

>  <unit-label>
nM

>  <quantitative-result>
7.9

$$$$

* * *

- assayed-target: Helicobacter pylori-derived urease (Helicobacter pylori)
- Construct: an urease solution prepared from Helicobacter pylori; endogenous in cells
- experiment-description: Screening of urease inhibitors (ammonia yield from urea)
- Assay type: biochemical
Reported IC50 maps to class as: small value (below 3 nM), mid value (3 nM to below 8 nM), large value (8 nM or more)

>  <compound>
Cc1cc(C(=O)NP(N)(N)=O)c(C)o1 [Example 49]

>  <assayed-target>
Helicobacter pylori-derived urease (Helicobacter pylori)

>  <assigned-category>
large value

$$$$
>  <compound>
Cc1ccsc1C(=O)NP(N)(N)=O [Example 4]

>  <assayed-target>
Helicobacter pylori-derived urease (Helicobacter pylori)

>  <assigned-category>
mid value

$$$$
>  <compound>
Cc1ccoc1C(=O)NP(N)(N)=O [Example 92]

>  <assayed-target>
Helicobacter pylori-derived urease (Helicobacter pylori)

>  <assigned-category>
mid value

$$$$
>  <compound>
NP(N)(=O)NC(=O)c1cccs1 [Example 1]

>  <assayed-target>
Helicobacter pylori-derived urease (Helicobacter pylori)

>  <assigned-category>
small value

$$$$
>  <compound>
NP(N)(=O)NC(=O)CCc1ccc(F)cc1 [Reference Example 38]

>  <assayed-target>
Helicobacter pylori-derived urease (Helicobacter pylori)

>  <assigned-category>
large value

$$$$
>  <compound>
N#Cc1ccc(CCC(=O)NP(N)(N)=O)cc1 [compound 40]

>  <assayed-target>
Helicobacter pylori-derived urease (Helicobacter pylori)

>  <assigned-category>
large value

$$$$
>  <compound>
Cc1sccc1C(=O)NP(N)(N)=O [Example 15]

>  <assayed-target>
Helicobacter pylori-derived urease (Helicobacter pylori)

>  <assigned-category>
small value

$$$$
>  <compound>
NP(N)(=O)NC(=O)CSc1nc2ccccc2s1 [Example 64]

>  <assayed-target>
Helicobacter pylori-derived urease (Helicobacter pylori)

>  <assigned-category>
small value

$$$$
>  <compound>
Cc1onc(-c2ccccc2)c1C(=O)NP(N)(N)=O [Example 73]

>  <assayed-target>
Helicobacter pylori-derived urease (Helicobacter pylori)

>  <assigned-category>
large value

$$$$
>  <compound>
NP(N)(=O)NC(=O)c1cccnc1 [Reference Example 2]

>  <assayed-target>
Helicobacter pylori-derived urease (Helicobacter pylori)

>  <assigned-category>
large value

$$$$
>  <compound>
NP(N)(=O)NC(=O)c1ccoc1Cl [Example 45]

>  <assayed-target>
Helicobacter pylori-derived urease (Helicobacter pylori)

>  <assigned-category>
small value

$$$$
>  <compound>
Cc1ccc(C(=O)NP(N)(N)=O)o1 [Example 43]

>  <assayed-target>
Helicobacter pylori-derived urease (Helicobacter pylori)

>  <assigned-category>
mid value

$$$$
>  <compound>
Cc1cc(C(=O)NP(N)(N)=O)c(Cl)s1 [Example 89]

>  <assayed-target>
Helicobacter pylori-derived urease (Helicobacter pylori)

>  <assigned-category>
small value

$$$$
>  <compound>
Cc1c(Cl)sc(Cl)c1C(=O)NP(N)(N)=O [Example 88]

>  <assayed-target>
Helicobacter pylori-derived urease (Helicobacter pylori)

>  <assigned-category>
mid value

$$$$
>  <compound>
NP(N)(=O)NC(=O)Cn1cnc2ccccc21 [Example 83]

>  <assayed-target>
Helicobacter pylori-derived urease (Helicobacter pylori)

>  <assigned-category>
mid value

$$$$
>  <compound>
NP(N)(=O)NC(=O)c1ccccc1[N+](=O)[O-] [compound 18, N-(Diaminophosphinyl)-2-nitrobenzamide]

>  <assayed-target>
Helicobacter pylori-derived urease (Helicobacter pylori)

>  <assigned-category>
mid value

$$$$
>  <compound>
NP(N)(=O)NC(=O)C=Cc1ccc(F)cc1F [compound 34]

>  <assayed-target>
Helicobacter pylori-derived urease (Helicobacter pylori)

>  <assigned-category>
large value

$$$$
>  <compound>
NP(N)(=O)NC(=O)c1ccc2ccccc2c1 [compound 28]

>  <assayed-target>
Helicobacter pylori-derived urease (Helicobacter pylori)

>  <assigned-category>
large value

$$$$
>  <compound>
NP(N)(=O)NC(=O)C=Cc1nc2ccccc2o1 [Example 69]

>  <assayed-target>
Helicobacter pylori-derived urease (Helicobacter pylori)

>  <assigned-category>
large value

$$$$
>  <compound>
NP(N)(=O)NC(=O)c1ccco1 [Reference Example 25, N-(Diaminophosphinyl)-2-furancarboxamide]

>  <assayed-target>
Helicobacter pylori-derived urease (Helicobacter pylori)

>  <assigned-category>
small value

$$$$
>  <compound>
NP(N)(=O)NC(=O)c1cc(Cl)sc1Cl [Example 25]

>  <assayed-target>
Helicobacter pylori-derived urease (Helicobacter pylori)

>  <assigned-category>
small value

$$$$
>  <compound>
NP(N)(=O)NC(=O)c1ccc([N+](=O)[O-])o1 [Reference Example 30]

>  <assayed-target>
Helicobacter pylori-derived urease (Helicobacter pylori)

>  <assigned-category>
mid value

$$$$
>  <compound>
Cc1sc(C(=O)NP(N)(N)=O)cc1Cl [Example 34]

>  <assayed-target>
Helicobacter pylori-derived urease (Helicobacter pylori)

>  <assigned-category>
large value

$$$$
>  <compound>
NP(N)(=O)NC(=O)C=Cc1ccc(Cl)c(Cl)c1 [compound 36]

>  <assayed-target>
Helicobacter pylori-derived urease (Helicobacter pylori)

>  <assigned-category>
large value

$$$$
>  <compound>
Cc1cc(C)c(C)c(OCC(=O)NP(N)(N)=O)c1 [Example 56]

>  <assayed-target>
Helicobacter pylori-derived urease (Helicobacter pylori)

>  <assigned-category>
large value

$$$$
>  <compound>
Cc1cc(C(=O)NP(N)(N)=O)c(C(F)(F)F)o1 [Example 48]

>  <assayed-target>
Helicobacter pylori-derived urease (Helicobacter pylori)

>  <assigned-category>
large value

$$$$
>  <compound>
NP(N)(=O)NC(=O)Cc1ccccc1 [Reference Example 6, N-(Diaminophosphinyl)-phenylacetamide]

>  <assayed-target>
Helicobacter pylori-derived urease (Helicobacter pylori)

>  <assigned-category>
large value

$$$$
>  <compound>
NP(N)(=O)NC(=O)COc1ccc(F)cc1 [Example 54]

>  <assayed-target>
Helicobacter pylori-derived urease (Helicobacter pylori)

>  <assigned-category>
mid value

$$$$
>  <compound>
NP(N)(=O)NC(=O)c1cccc(F)c1 [Reference Example 8, N-(Diaminophosphinyl)-3-fluorobenzamide]

>  <assayed-target>
Helicobacter pylori-derived urease (Helicobacter pylori)

>  <assigned-category>
mid value

$$$$
>  <compound>
NP(N)(=O)NC(=O)c1cscc1Br [Example 37]

>  <assayed-target>
Helicobacter pylori-derived urease (Helicobacter pylori)

>  <assigned-category>
small value

$$$$
>  <compound>
NP(N)(=O)NC(=O)c1ccsc1Br [Example 26]

>  <assayed-target>
Helicobacter pylori-derived urease (Helicobacter pylori)

>  <assigned-category>
small value

$$$$
>  <compound>
NP(N)(=O)NC(=O)c1cc(Cl)c(Cl)s1 [Example 36]

>  <assayed-target>
Helicobacter pylori-derived urease (Helicobacter pylori)

>  <assigned-category>
mid value

$$$$
>  <compound>
COc1csc(C(=O)NP(N)(N)=O)c1 [Example 24]

>  <assayed-target>
Helicobacter pylori-derived urease (Helicobacter pylori)

>  <assigned-category>
large value

$$$$
>  <compound>
Cc1cscc1C(=O)NP(N)(N)=O [Example 85]

>  <assayed-target>
Helicobacter pylori-derived urease (Helicobacter pylori)

>  <assigned-category>
small value

$$$$
>  <compound>
NP(N)(=O)NC(=O)c1ccc(C(F)F)o1 [Example 47]

>  <assayed-target>
Helicobacter pylori-derived urease (Helicobacter pylori)

>  <assigned-category>
small value

$$$$
>  <compound>
NP(N)(=O)NC(=O)c1csc(Cl)c1 [Example 30]

>  <assayed-target>
Helicobacter pylori-derived urease (Helicobacter pylori)

>  <assigned-category>
mid value

$$$$
>  <compound>
Cc1sc(Cl)cc1C(=O)NP(N)(N)=O [Example 33]

>  <assayed-target>
Helicobacter pylori-derived urease (Helicobacter pylori)

>  <assigned-category>
small value

$$$$
>  <compound>
NP(N)(=O)NC(=O)c1cc2ccccc2o1 [Example 67]

>  <assayed-target>
Helicobacter pylori-derived urease (Helicobacter pylori)

>  <assigned-category>
mid value

$$$$
